Cited source: the supplement of paper PMC10567573

B1: KRT34 (parent)
chain: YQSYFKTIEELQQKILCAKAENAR

Variants of: B1
procedure.summary: protein stability index of a GFP-peptide fusion (GPS, HEK-293T) (PSI 1-6); higher = more stable;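 further: lentivirally expressed fusions sorted by FACS into six bins by GFP to DsRed ratio, PSI derived from sequencing read proportions per bin multiplied by bin number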
particulars: c terminus: a fixed tail appended
Recorded protein stability index for the following variants

mutant.designation	protein stability index
R24V	2.78
S3H	1.5
K14L	2.62
I15S	1.81
I8G	1.48
L16P	1.41
Q2S	2.5
E21H	2.24
T7N	2.34
A23K	2.17
K19N	1.83
I15H	1.87
A20V	1.71
K14Q	2.14
K6C	1.51
R24Y	2.6
Q2A	2.1
L16D	1.96
Q2K	2.54
Y1L	1.55
E9T	1.84
L11M	1.81
